assayedTarget: General amino-acid permease GAP1 (Saccharomyces cerevisiae);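 note: amino acid uptake through Gap1 in nitrogen-starved wild-type yeast cells, measured after 60 s and expressed relative to L-citrulline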
settings: sigma1278b, at 5 mM
Description: Inhibition of nitrogen-starved wild type sigma1278b yeast Gap1-mediated amino acid uptake at 5 mM after 60 secs relative to L-citrulline
Non-standard residues stand in square brackets, D forms with d. Residues, ends and D or L forms follow the SMILES beside them.
Entries and their inhibition
propertyName: inhibition

INSERT INTO assay_data (compound, result) VALUES
  ('CC(C)C[C@@H](N)C(=O)NCC(=O)O (H-[dL]-Gly-OH)', '< 15%'),
  ('CC(C)C[C@H](N)C(=O)N[C@@H](C)C(=O)O (H-Leu-Ala-OH)', '< 15%'),
  ('COC(=O)[C@@H](N)C(C)C', '< 15%');
